# TESTED_SYSTEM: T1, GRIP1_2, Q9Y3R0
# T1 sequence (Q9Y3R0 145-248, limits assumed, looked up): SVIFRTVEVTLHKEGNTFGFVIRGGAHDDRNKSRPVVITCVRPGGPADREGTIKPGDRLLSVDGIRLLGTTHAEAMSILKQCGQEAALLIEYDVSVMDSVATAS
# PROTOCOL_SUMMARY: holdup assay
# Design: key: below the threshold = too weak to quantify, mostly under pKd 3.1 to 4
# MEASUREMENT_SETUP: plain residues with an end cap or a label only (N-terminal biotin on a linker: ttds)
PROPERTY_MEASURED: pKd

The examples below pair each entry with its known result.
• DPRNTQTSQI [ABRAXAS2, Q15018] = 3.57
• LDSQIQETSI [MAP4, P27816] = below the threshold
• PKRPFVESNV [TANC2, Q9HCD6] = below the threshold
• LCALPKVTTV [AGMAT, Q9BSE5] = below the threshold

Now look at this one.
Q: Which pKd value belongs to QFQYAKESYI [TAGAP, Q8N103] ?
Result: below the threshold

Just for reference, paper PMC9482650 is where these values come from.
